- measured-target: MAPK15A (MAPK15HSD) (Homo sapiens)
- Sequence (Q8TD08 13-304 limits assumed): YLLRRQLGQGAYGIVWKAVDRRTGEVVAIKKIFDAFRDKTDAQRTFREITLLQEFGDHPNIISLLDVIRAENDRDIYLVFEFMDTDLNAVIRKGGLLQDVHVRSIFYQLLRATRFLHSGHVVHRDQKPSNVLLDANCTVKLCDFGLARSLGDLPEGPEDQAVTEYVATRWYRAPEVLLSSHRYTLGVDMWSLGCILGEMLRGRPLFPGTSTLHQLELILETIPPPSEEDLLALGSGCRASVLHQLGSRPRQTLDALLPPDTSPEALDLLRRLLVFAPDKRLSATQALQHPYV
- assay-method-text: DSF Tm panel
- Type: binding
- measurement-conditions: 10 μM compound
Entries annotated with measured ΔTm at 10 µM
property-name: ΔTm at 10 µM (°C)

smiles-code | recorded-measurement
COc1cc(CNC(=O)Nc2ccc3cc2OCCOCCNc2ccn4ncc-3c4n2)ccc1F | 3.3
COc1cccc(CNC(=O)Nc2ccc3cc2OCCOCCNc2ccn4ncc-3c4n2)c1 | 2.3
COc1ccc(CNC(=O)Nc2ccc3cc2OCCOCCNc2ccn4ncc-3c4n2)cc1 | 4.1
O=C(NCc1ccccc1Cl)Nc1ccc2cc1OCCOCCNc1ccn3ncc-2c3n1 | 6

###

- measured-target: MAPK14A (Homo sapiens)
- Construct: purchased in-house DSF kinase panel (SGC-style construct names; the trailing letter is the construct ID)
- Sequence (Q16539 whole entry): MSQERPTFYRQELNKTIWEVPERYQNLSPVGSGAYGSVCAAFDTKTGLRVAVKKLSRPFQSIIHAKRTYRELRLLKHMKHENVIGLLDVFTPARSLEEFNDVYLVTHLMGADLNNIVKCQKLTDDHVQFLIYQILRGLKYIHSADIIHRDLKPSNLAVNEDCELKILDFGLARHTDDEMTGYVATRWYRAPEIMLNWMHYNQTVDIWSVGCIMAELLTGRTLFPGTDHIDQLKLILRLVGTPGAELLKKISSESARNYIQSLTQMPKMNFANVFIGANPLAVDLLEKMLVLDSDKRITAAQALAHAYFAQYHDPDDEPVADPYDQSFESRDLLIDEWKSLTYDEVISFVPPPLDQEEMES
- assay-method-text: DSF Tm panel
- Type: binding
- measurement-conditions: 10 μM compound
hey, just use Condition met if measured ΔTm at 10 µM is less than 1 °C, otherwise Condition not met

smiles-code | answer-label
O=C(NCc1ccc(C(F)(F)F)cc1)Nc1ccc2cc1OCCOCCNc1ccn3ncc-2c3n1 | Condition not met
COc1cccc(CNC(=O)Nc2ccc3cc2OCCOCCNc2ccn4ncc-3c4n2)c1 | Condition met
COc1ccc(CNC(=O)Nc2ccc3cc2OCCOCCNc2ccn4ncc-3c4n2)cc1 | Condition not met
Cc1cc(Cl)ccc1CNC(=O)Nc1ccc2cc1OCCOCCNc1ccn3ncc-2c3n1 | Condition met
O=C(NCc1ccccc1C(F)(F)F)Nc1ccc2cc1OCCOCCNc1ccn3ncc-2c3n1 | Condition not met
COc1ccc(CNC(=O)Nc2ccc3cc2OCCOCCNc2ccn4ncc-3c4n2)cc1F | Condition not met
O=C(NCc1ccccc1)Nc1ccc2cc1OCCOCCNc1ccn3ncc-2c3n1 | Condition met
COc1ccccc1CNC(=O)Nc1ccc2cc1OCCOCCNc1ccn3ncc-2c3n1 | Condition met
O=C(NCc1ccc(Cl)cc1F)Nc1ccc2cc1OCCOCCNc1ccn3ncc-2c3n1 | Condition met
Cc1cc(Br)ccc1CNC(=O)Nc1ccc2cc1OCCOCCNc1ccn3ncc-2c3n1 | Condition not met
O=C(NCc1ccc(Cl)cc1Cl)Nc1ccc2cc1OCCOCCNc1ccn3ncc-2c3n1 | Condition met
Cc1ccc(F)cc1CNC(=O)Nc1ccc2cc1OCCOCCNc1ccn3ncc-2c3n1 | Condition not met
C[C@H](NC(=O)Nc1ccc2cc1OCCOCCNc1ccn3ncc-2c3n1)c1ccccc1 | Condition not met
COc1cc(CNC(=O)Nc2ccc3cc2OCCOCCNc2ccn4ncc-3c4n2)ccc1F | Condition not met
O=C(NCc1cccc(Cl)c1)Nc1ccc2cc1OCCOCCNc1ccn3ncc-2c3n1 | Condition met
CN1CCN(C(=O)Nc2ccc3cc2OCCOCCNc2ccn4ncc-3c4n2)CC1 | Condition met

###

Measured ΔTm at 10 µM values are reported for all entries that follow.
- measured-target: BRPF1B (Homo sapiens, UniProt P55201)
- Construct: purchased in-house DSF kinase panel (SGC-style construct names; the trailing letter is the construct ID)
- Sequence (P55201 whole entry): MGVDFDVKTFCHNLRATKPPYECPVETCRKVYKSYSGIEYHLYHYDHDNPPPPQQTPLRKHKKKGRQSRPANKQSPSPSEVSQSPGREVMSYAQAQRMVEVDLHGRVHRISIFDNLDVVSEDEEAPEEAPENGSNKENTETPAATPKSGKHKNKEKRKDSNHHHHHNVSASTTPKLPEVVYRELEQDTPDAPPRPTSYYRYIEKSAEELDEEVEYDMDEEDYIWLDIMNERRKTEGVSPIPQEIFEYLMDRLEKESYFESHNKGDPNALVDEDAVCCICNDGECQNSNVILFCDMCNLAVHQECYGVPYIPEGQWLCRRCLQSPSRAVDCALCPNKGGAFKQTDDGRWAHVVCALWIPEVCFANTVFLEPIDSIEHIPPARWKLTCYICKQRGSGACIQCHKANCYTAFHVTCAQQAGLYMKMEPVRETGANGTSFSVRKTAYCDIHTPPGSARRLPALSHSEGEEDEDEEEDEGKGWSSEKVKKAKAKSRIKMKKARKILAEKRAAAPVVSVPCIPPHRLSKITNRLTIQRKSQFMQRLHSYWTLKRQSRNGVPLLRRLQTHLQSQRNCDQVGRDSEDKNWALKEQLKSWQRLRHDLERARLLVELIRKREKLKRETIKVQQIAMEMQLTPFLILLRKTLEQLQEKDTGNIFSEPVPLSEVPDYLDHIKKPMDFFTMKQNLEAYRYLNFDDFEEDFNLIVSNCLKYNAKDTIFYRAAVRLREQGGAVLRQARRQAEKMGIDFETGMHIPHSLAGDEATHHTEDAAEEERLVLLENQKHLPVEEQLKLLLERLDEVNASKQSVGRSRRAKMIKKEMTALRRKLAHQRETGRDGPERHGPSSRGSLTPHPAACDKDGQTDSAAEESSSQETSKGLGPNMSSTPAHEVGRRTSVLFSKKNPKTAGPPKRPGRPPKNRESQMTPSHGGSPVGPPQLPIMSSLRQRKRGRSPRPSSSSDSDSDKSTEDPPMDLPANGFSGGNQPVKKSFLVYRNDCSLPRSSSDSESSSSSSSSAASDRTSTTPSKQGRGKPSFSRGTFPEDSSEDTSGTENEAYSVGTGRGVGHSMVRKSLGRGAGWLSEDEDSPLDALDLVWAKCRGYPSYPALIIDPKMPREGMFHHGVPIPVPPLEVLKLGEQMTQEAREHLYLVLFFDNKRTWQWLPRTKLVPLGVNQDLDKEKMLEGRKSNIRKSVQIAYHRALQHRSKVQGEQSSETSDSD
- assay-method-text: DSF Tm panel
- Format: binding
- measurement-conditions: 10 μM compound
property-name: ΔTm at 10 µM (°C)

smiles-code | property-name | recorded-measurement
O=C(NCc1ccccc1C(F)(F)F)Nc1ccc2cc1OCCOCCNc1ccn3ncc-2c3n1 | ΔTm at 10 µM | 1.9
COc1ccccc1CNC(=O)Nc1ccc2cc1OCCOCCNc1ccn3ncc-2c3n1 | ΔTm at 10 µM | -0.1
COc1cc(CNC(=O)Nc2ccc3cc2OCCOCCNc2ccn4ncc-3c4n2)ccc1F | ΔTm at 10 µM | 1.2

###

Catalogue of ΔTm at 10 µM readings, one per entry.
- measured-target: SRPK1A (Homo sapiens, UniProt Q96SB4)
- Construct: purchased in-house DSF kinase panel (SGC-style construct names; the trailing letter is the construct ID)
- Sequence (Q96SB4 80-653): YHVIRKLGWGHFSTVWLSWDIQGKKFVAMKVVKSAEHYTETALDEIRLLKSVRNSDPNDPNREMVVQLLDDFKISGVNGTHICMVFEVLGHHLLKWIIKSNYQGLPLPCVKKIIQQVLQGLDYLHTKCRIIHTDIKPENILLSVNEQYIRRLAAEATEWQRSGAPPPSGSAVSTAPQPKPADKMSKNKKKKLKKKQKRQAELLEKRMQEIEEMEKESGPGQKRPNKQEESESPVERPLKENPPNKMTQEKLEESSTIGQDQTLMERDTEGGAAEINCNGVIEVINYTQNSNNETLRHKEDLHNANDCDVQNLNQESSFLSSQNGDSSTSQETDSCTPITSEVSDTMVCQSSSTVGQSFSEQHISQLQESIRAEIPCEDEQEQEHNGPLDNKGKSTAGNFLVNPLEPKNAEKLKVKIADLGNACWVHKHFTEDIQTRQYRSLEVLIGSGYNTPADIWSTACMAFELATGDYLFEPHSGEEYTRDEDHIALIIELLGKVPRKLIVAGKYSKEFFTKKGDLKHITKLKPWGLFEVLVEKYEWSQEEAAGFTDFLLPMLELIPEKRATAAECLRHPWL
- assay-method-text: DSF Tm panel
- Format: binding
- measurement-conditions: 10 μM compound
property-name: ΔTm at 10 µM (°C)

smiles-code | measured-target | recorded-measurement
O=C(NCc1ccc(Cl)cc1F)Nc1ccc2cc1OCCOCCNc1ccn3ncc-2c3n1 | SRPK1A (Homo sapiens, UniProt Q96SB4) | 0.4
O=C(NCc1ccc(Cl)cc1)Nc1ccc2cc1OCCOCCNc1ccn3ncc-2c3n1 | SRPK1A (Homo sapiens, UniProt Q96SB4) | 0.2
Cc1ccc(F)cc1CNC(=O)Nc1ccc2cc1OCCOCCNc1ccn3ncc-2c3n1 | SRPK1A (Homo sapiens, UniProt Q96SB4) | 0

###

Collected ΔTm at 10 µM values appear next to each entry.
- measured-target: PIM3A (Homo sapiens)
- Construct: purchased in-house DSF kinase panel (SGC-style construct names; the trailing letter is the construct ID)
- assay-method-text: DSF Tm panel
- Type: binding
- measurement-conditions: 10 μM compound

smiles-code | measured-target | scale-unit | ΔTm at 10 µM
COc1cccc(CNC(=O)Nc2ccc3cc2OCCOCCNc2ccn4ncc-3c4n2)c1 | PIM3A (Homo sapiens) | °C | 4.1
Cc1cc(Br)ccc1CNC(=O)Nc1ccc2cc1OCCOCCNc1ccn3ncc-2c3n1 | PIM3A (Homo sapiens) | °C | 2.8
O=C(NCc1ccccc1C(F)(F)F)Nc1ccc2cc1OCCOCCNc1ccn3ncc-2c3n1 | PIM3A (Homo sapiens) | °C | 4.6
COc1ccccc1CNC(=O)Nc1ccc2cc1OCCOCCNc1ccn3ncc-2c3n1 | PIM3A (Homo sapiens) | °C | 3.9

###

- measured-target: CAMK2BA (Homo sapiens)
- Construct: purchased in-house DSF kinase panel (SGC-style construct names; the trailing letter is the construct ID)
- Sequence (Q13554 11-303): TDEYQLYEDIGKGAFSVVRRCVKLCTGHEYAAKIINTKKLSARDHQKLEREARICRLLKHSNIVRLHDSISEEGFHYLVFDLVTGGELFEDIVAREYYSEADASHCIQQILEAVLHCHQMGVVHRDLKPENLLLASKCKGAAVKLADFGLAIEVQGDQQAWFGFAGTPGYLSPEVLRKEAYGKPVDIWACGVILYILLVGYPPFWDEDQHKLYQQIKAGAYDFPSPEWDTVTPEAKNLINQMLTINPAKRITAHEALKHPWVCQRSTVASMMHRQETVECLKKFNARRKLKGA
- assay-method-text: DSF Tm panel
- Assay type: binding
- measurement-conditions: 10 μM compound
property-name: ΔTm at 10 µM (°C)

smiles-code | measured-target | property-name | scale-unit | recorded-measurement
COc1cc(CNC(=O)Nc2ccc3cc2OCCOCCNc2ccn4ncc-3c4n2)ccc1F | CAMK2BA (Homo sapiens) | ΔTm at 10 µM | °C | 0.1
O=C(NCc1ccc(Cl)cc1)Nc1ccc2cc1OCCOCCNc1ccn3ncc-2c3n1 | CAMK2BA (Homo sapiens) | ΔTm at 10 µM | °C | -0.1
O=C(NCc1ccc(C(F)(F)F)cc1)Nc1ccc2cc1OCCOCCNc1ccn3ncc-2c3n1 | CAMK2BA (Homo sapiens) | ΔTm at 10 µM | °C | 0.3
COc1ccccc1CNC(=O)Nc1ccc2cc1OCCOCCNc1ccn3ncc-2c3n1 | CAMK2BA (Homo sapiens) | ΔTm at 10 µM | °C | -0.2
Cc1ccc(F)cc1CNC(=O)Nc1ccc2cc1OCCOCCNc1ccn3ncc-2c3n1 | CAMK2BA (Homo sapiens) | ΔTm at 10 µM | °C | 0
O=C(NCc1ccccc1Cl)Nc1ccc2cc1OCCOCCNc1ccn3ncc-2c3n1 | CAMK2BA (Homo sapiens) | ΔTm at 10 µM | °C | 0.3
O=C(NCc1ccccc1C(F)(F)F)Nc1ccc2cc1OCCOCCNc1ccn3ncc-2c3n1 | CAMK2BA (Homo sapiens) | ΔTm at 10 µM | °C | -0.1
CN1CCN(C(=O)Nc2ccc3cc2OCCOCCNc2ccn4ncc-3c4n2)CC1 | CAMK2BA (Homo sapiens) | ΔTm at 10 µM | °C | 0.6
COc1cccc(CNC(=O)Nc2ccc3cc2OCCOCCNc2ccn4ncc-3c4n2)c1 | CAMK2BA (Homo sapiens) | ΔTm at 10 µM | °C | -0.2
Cc1cc(Cl)ccc1CNC(=O)Nc1ccc2cc1OCCOCCNc1ccn3ncc-2c3n1 | CAMK2BA (Homo sapiens) | ΔTm at 10 µM | °C | 0.9
C[C@H](NC(=O)Nc1ccc2cc1OCCOCCNc1ccn3ncc-2c3n1)c1ccccc1 | CAMK2BA (Homo sapiens) | ΔTm at 10 µM | °C | -0.3

###

- measured-target: NQO2A (Homo sapiens)
- Construct: purchased in-house DSF kinase panel (SGC-style construct names; the trailing letter is the construct ID)
- Sequence (P16083 1-231): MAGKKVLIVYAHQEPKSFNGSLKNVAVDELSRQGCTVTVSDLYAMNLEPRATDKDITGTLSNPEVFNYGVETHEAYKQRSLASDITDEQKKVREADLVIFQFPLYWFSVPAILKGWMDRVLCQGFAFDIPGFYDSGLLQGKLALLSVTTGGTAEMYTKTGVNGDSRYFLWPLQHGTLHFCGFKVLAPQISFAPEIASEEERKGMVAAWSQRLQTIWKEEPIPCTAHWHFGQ
- assay-method-text: DSF Tm panel
- Type: binding
- measurement-conditions: 10 μM compound
property-name: ΔTm at 10 µM (°C)

smiles-code | measured-target | scale-unit | recorded-measurement
COc1ccccc1CNC(=O)Nc1ccc2cc1OCCOCCNc1ccn3ncc-2c3n1 | NQO2A (Homo sapiens) | °C | -0.5
COc1ccc(CNC(=O)Nc2ccc3cc2OCCOCCNc2ccn4ncc-3c4n2)cc1F | NQO2A (Homo sapiens) | °C | -2.8
Cc1cc(Br)ccc1CNC(=O)Nc1ccc2cc1OCCOCCNc1ccn3ncc-2c3n1 | NQO2A (Homo sapiens) | °C | -1.9
O=C(NCc1ccc(C(F)(F)F)cc1)Nc1ccc2cc1OCCOCCNc1ccn3ncc-2c3n1 | NQO2A (Homo sapiens) | °C | -2.7
COc1cc(CNC(=O)Nc2ccc3cc2OCCOCCNc2ccn4ncc-3c4n2)ccc1F | NQO2A (Homo sapiens) | °C | -1.5
COc1ccc(CNC(=O)Nc2ccc3cc2OCCOCCNc2ccn4ncc-3c4n2)cc1 | NQO2A (Homo sapiens) | °C | -0.6
C[C@H](NC(=O)Nc1ccc2cc1OCCOCCNc1ccn3ncc-2c3n1)c1ccccc1 | NQO2A (Homo sapiens) | °C | -0.5
Cc1ccc(F)cc1CNC(=O)Nc1ccc2cc1OCCOCCNc1ccn3ncc-2c3n1 | NQO2A (Homo sapiens) | °C | -1.5

These data points were gathered from paper PMC12621043.
